Origin of the recorded values: patent US6117840A

# MEASURED_ON: VLA-4 (Homo sapiens, UniProt P05556+P13612)
# Construct: host or cells: Jurkat (human T lymphoblastic line)
# Sequence (P13612 34-1032): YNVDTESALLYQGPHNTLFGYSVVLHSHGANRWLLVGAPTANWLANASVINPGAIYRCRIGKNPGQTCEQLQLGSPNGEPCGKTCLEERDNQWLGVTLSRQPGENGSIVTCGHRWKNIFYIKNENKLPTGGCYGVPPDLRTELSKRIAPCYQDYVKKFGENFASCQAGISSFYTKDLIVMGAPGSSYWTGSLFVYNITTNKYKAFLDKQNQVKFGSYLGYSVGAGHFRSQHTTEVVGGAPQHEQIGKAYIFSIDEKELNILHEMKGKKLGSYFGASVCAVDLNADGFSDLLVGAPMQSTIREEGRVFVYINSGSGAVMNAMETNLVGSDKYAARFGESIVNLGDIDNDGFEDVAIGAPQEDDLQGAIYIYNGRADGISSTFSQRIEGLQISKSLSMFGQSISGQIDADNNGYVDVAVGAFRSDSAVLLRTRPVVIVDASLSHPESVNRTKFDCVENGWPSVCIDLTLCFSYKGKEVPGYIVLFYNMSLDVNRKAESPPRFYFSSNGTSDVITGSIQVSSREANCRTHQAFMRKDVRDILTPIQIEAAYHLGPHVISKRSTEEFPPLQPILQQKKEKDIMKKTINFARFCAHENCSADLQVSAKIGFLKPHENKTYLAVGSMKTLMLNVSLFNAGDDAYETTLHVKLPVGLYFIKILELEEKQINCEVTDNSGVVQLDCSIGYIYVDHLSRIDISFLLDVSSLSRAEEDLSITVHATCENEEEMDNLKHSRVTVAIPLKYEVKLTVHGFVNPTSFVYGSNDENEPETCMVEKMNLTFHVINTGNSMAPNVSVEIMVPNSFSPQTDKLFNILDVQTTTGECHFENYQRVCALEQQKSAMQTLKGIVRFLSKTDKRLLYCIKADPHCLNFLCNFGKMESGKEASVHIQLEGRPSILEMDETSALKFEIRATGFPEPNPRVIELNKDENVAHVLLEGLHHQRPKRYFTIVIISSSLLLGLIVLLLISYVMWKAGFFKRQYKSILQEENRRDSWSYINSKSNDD
# Sequence (P05556 21-798): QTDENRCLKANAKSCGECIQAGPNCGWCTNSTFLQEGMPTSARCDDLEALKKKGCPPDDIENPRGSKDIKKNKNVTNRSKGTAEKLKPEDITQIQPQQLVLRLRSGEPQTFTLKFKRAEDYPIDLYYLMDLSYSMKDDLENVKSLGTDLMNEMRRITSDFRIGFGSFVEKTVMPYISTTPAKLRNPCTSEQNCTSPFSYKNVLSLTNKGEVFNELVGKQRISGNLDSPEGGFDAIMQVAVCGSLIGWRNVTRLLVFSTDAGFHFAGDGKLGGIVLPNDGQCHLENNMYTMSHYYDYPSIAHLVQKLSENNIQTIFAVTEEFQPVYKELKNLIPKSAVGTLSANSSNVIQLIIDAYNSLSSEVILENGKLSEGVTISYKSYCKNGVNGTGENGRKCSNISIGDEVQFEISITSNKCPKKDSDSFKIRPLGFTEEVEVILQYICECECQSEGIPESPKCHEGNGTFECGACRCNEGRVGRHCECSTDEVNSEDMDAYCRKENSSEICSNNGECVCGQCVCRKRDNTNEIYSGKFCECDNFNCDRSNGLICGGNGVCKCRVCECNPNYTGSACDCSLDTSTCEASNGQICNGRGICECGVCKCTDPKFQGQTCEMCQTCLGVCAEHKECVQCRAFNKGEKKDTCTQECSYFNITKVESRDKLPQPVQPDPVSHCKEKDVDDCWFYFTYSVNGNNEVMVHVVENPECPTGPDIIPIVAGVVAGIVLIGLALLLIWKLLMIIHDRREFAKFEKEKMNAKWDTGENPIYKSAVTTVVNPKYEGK
# Assay type: cell-based
# PARTICULARS: relative to standard peptide SEQ ID NO:3 (=1), normalized IC50; about one-tenth or less of SEQ ID NO:3 assigned zero
Square brackets hold non-standard residues; d marks the D form. Peptide text beside a SMILES is read from it. * marks the point of attachment. Phe(4-NO2) = N[C@@H](Cc1ccc([N+](=O)[O-])cc1)C(=O)O; hPhe = N[C@@H](CCc1ccccc1)C(=O)O; Cha = N[C@@H](CC1CCCCC1)C(=O)O; NHPhenethyl = c1ccc(CCN*)cc1; Morpholide = C1CN(*)CCO1; PhAc = O=C(Cc1ccccc1)*; NHBn = c1ccc(CN*)cc1; Bz = O=C(c1ccccc1)*
Entries and their RELATIVE POTENCY (inhibition of VLA-4 binding CS-1) values follow.
Note: the reply should be a number with no unit written.

Known results for compounds:
• CC(C)C[C@H](NC(=O)Cc1ccccc1)C(=O)N[C@@H](CC(=O)O)C(=O)NC1Cc2ccccc2N(CC(N)=O)C1=O (some centres unmarked) = 45
• CC(C)C[C@H](NC(=O)Cc1ccccc1)C(=O)N[C@@H](CC(=O)O)C(=O)NC(c1ccccc1)c1ccccc1 [X L D Z phenylacetyl benzylhydrylamide] = 3
• CC(C)[C@H](NC(=O)[C@H](CC(=O)O)NC(=O)[C@H](CC1CCCCC1)NC(=O)c1ccccc1)C(=O)N1CCC[C@@H]1C(N)=O (Bz-[Cha]DV[dP]-NH2) = 11
• CC(C)C[C@H](NC(=O)Cc1ccccc1)C(=O)N[C@@H](CC(=O)O)C(=O)N[C@@H](Cc1ccc([N+](=O)[O-])cc1)C(=O)N1CCC[C@@H]1C(N)=O (PhAc-LD[Phe(4-NO2)][dP]-NH2) = 40
• CC(C)C[C@H](NC(=O)Cc1ccccc1)C(=O)N[C@@H](CC(=O)O)C(=O)NCCc1ccccc1 [X L D Z phenylacetyl phenethylamide] (PhAc-Leu-Asp-NHPhenethyl) = 19
• CC(C)C[C@H](NC(=O)Cc1ccccc1)C(=O)N[C@@H](CC(=O)O)C(=O)NCc1ccccc1 [X L D Z phenylacetyl benzylamide] (PhAc-Leu-Asp-NHBn) = 19
• CC(C)C[C@H](NC(=O)Cc1ccccc1)C(=O)N[C@@H](CC(=O)O)C(=O)NC(Cc1ccccc1)Cc1ccccc1 = 0
• CC(C)C[C@H](NC(=O)Cc1ccccc1)C(=O)N[C@@H](CC(=O)O)C(=O)N[C@@H](Cc1c[nH]c2ccccc12)C(=O)N1CCC[C@@H]1C(N)=O [X L D W p phenylacetyl amide] (PhAc-LDW[dP]-NH2) = 184

Query: # RELATIVE POTENCY (inhibition of VLA-4 binding CS-1) lookup, item `CC(C)C[C@H](NC(=O)Cc1ccccc1)C(=O)N[C@@H](CC(=O)O)C(=O)N[C@@H](Cc1ccccc1)C(=O)N1CCN(CCOCCO)CC1`
Response: 505

Query: Try the compound CC(C)C[C@H](NC(=O)Cc1ccccc1)C(=O)N[C@@H](CC(=O)O)C(=O)N[C@@H](Cc1ccccc1)C(=O)N1CC(O)C(O)C1 (some centres unmarked)
Response: 194

Query: Query NC(=O)[C@H]1CCCN1C(=O)[C@H](Cc1ccccc1)NC(=O)[C@H](CC(=O)O)NC(=O)[C@H](CC1CCCCC1)NC(=O)c1ccccc1 (Bz-[Cha]DF[dP]-NH2) next
Response: 17

Query: What do we get for CC(C)C[C@H](NC(=O)Cc1ccccc1)C(=O)N[C@@H](CC(=O)O)C(=O)N[C@@H](CCc1ccccc1)C(=O)N1CCC[C@@H]1C(N)=O (PhAc-LD[hPhe][dP]-NH2) ?
Response: 94

Query: Further, for CC(C)C[C@H](NC(=O)Cc1ccccc1)C(=O)N[C@@H](CC(=O)O)C(=O)N[C@@H](Cc1ccc(O)cc1)C(=O)N1CCOCC1 [X L D Y Z phenylacetyl morpholinamide] (PhAc-Leu-Asp-Tyr-Morpholide) ?
Response: 313

Query: Likewise for `CC(C)C[C@H](NC(=O)Cc1ccccc1)C(=O)N[C@@H](CC(=O)O)C(=O)NCCN1CCOCC1` ?
Response: 13

Query: Let us now turn to CC(C)C[C@H](NC(=O)Cc1ccccc1)C(=O)N[C@@H](CC(=O)O)C(=O)N[C@@H](Cc1ccc(O)cc1)C(=O)N1CCC[C@@H]1C(N)=O [X L D Y p phenylacetyl amide] (PhAc-LDY[dP]-NH2)
Response: 640

* * *

# MEASURED_ON: VLA-4 (Homo sapiens, UniProt P05556+P13612)
# Construct: host or cells: Jurkat (human T lymphoblastic line)
# Format: cell-based
# PARTICULARS: relative to standard peptide SEQ ID NO:3 (=1), normalized IC50; about one-tenth or less of SEQ ID NO:3 assigned zero
Square brackets hold non-standard residues; d marks the D form. Peptide text beside a SMILES is read from it. * marks the point of attachment. PhAc = O=C(Cc1ccccc1)*; Inp = O=C(O)C1CCNCC1; NHNH2 = NN*
Values of RELATIVE POTENCY (inhibition of VLA-4 binding CS-1) greater than or equal to 50 map to fulfilled; values below map to not fulfilled.

- CC(C)C[C@H](NC(=O)Cc1ccccc1)C(=O)N[C@@H](CC(=O)O)C(=O)NN [X L D Z phenylacetyl hydrazide] (PhAc-Leu-Asp-NHNH2): not fulfilled
- CCCCCCCCCC(=O)OC1CCN(C(=O)[C@H](Cc2ccccc2)NC(=O)[C@H](CC(=O)O)NC(=O)[C@H](CC(C)C)NC(=O)Cc2ccccc2)CC1: not fulfilled
- CC(C)C[C@H](NC(=O)Cc1ccccc1)C(=O)N[C@@H](CC(=O)O)C(=O)NC1CCN(C2CCCCC2)C1=O (some centres unmarked): not fulfilled

Query: Determine whether measured RELATIVE POTENCY (inhibition of VLA-4 binding CS-1) meets or exceeds 50 for CC(C)C[C@H](NC(=O)Cc1ccccc1)C(=O)N[C@@H](CC(=O)O)C(=O)NNC(=O)OC(C)(C)C [X L D Z phenylacetyl N'-t-Boc-hydrazide]
Response: not fulfilled

Query: How about CC(C)C[C@H](NC(=O)Cc1ccccc1)C(=O)N[C@@H](CC(=O)O)C(=O)N[C@@H](Cc1ccccc1)C(N)=O [X L D F phenylacetyl amide] (PhAc-Leu-Asp-Phe-NH2) ?
Response: not fulfilled

Query: Okay, and `CC(C)C[C@H](NC(=O)Cc1ccccc1)C(=O)N[C@@H](CC(=O)O)C(=O)N[C@@H](Cc1ccccc1)C(=O)N1CCN(CC(=O)O)CC1` ?
Response: fulfilled

Query: Same lookup for CC(C)C[C@H](NC(=O)Cc1ccccc1)C(=O)N[C@@H](CC(=O)O)C(=O)N[C@@H](Cc1ccccc1)C(=O)N1CCC(C(=O)O)CC1 (PhAc-LDF[Inp]-OH) , please.
Response: fulfilled
